Run Description: NCI Yeast Anticancer Drug Screen. Data for the rad50 strain (AID 155);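 further: 0% = growth of vehicle-only cultures of the same strain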
Experimental Context: S. cerevisiae rad50 strain growth inhibition; at 50.0 µM; hits give high values
This is part of a sample that, as a whole, favours compounds with a hit. Of some 79,000 tested, about 15% had one in any assay.
Measured growth inhibition by item
Form entry: value (%) — number only.

Examples from the recorded data:
| Compound | Scale Unit | growth inhibition |
| --- | --- | --- |
| CCOC(=O)c1ccc(C(=O)OCC)n1-c1cc2cc(c1)CSCc1cc(cc(-n3c(C(=O)OCC)ccc3C(=O)OCC)c1)CSC2 | % | -26.2 |
| Nc1ccnc(SCCCCc2ccccc2)n1 | % | 15.6 |
| C=C(C)c1ccc(C(=C)C)cc1 | % | -45.9 |
| CC(=O)Nc1ccc(C(=O)NN2C(=O)CSC2c2ccc(O)cc2)cc1 (stereo unspecified) | % | -36 |

Now, please, on to the next compound.
# input Fill in reported growth inhibition for this entry: CS(=O)(=O)N/N=C/C1C=CC=CC1 (stereo unspecified)
# output -6.9

====

Run Description: NCI Yeast Anticancer Drug Screen. Data for the mec2-1 strain (AID 157)
Experimental Context: S. cerevisiae mec2-1 strain, at 50.0 µM
Compounds without any hit were thinned out: in the full panel of roughly 79,000, 15% have a hit. Activity calls are given as the source filed them. Cut-off read from the data, not from the text of the source: active = growth inhibition above about 70%; inactive = the rest.
Return exactly one item of active, inactive

| Compound | Assigned Category |
| --- | --- |
| CC(=O)CCCC(CC(C)O)[Si](C)(C)C (stereo not given) | inactive |
| CSc1c(S(C)=O)[nH]c2cc(Br)cc(Br)c12 (stereo not given) | active |
| CN(C)CC(=O)c1c[nH]c(=O)[nH]c1=O | inactive |
| CCOC(=O)NC(=O)c1cn(CCCCCCCCCCC(=O)NCCCN2CCN(CCCNC(=O)CCCCCCCCCCn3cc(C(=O)NC(=O)OCC)c(=O)[nH]c3=O)CC2)c(=O)[nH]c1=O | inactive |

# input # fetch the recorded call for CC(=O)OC1CCC2(C)C(CCC3(C)C2CCC2C4C5OC(=O)C4(CCC5(C)C)CCC23C)C1(C)C (stereo not given) here
# output inactive

====

Run Description: NCI Yeast Anticancer Drug Screen. Data for the rad50 strain (AID 155);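 further: 0% = growth of vehicle-only cultures of the same strain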
Experimental Context: S. cerevisiae rad50 strain growth inhibition; at 50.0 µM; hits give high values
This is part of a sample that, as a whole, favours compounds with a hit. Of some 79,000 tested, about 15% had one in any assay. Where a SMILES comes first, the peptide text is derived from it. The star is where a group is joined. Boc = CC(C)(C)OC(=O)*; OcHex = C1CCC(O*)CC1
So basically: growth inhibition at 20% or higher? That is Condition met. Lower than 20%? That is Condition not met.

Worked cases, answers included:
| Compound | Assigned Category |
| --- | --- |
| C[Si](C)(CNCCN)O[Si](C)(C)CNCCN | Condition not met |
| CN(C)CCC(OC(=O)c1ccccc1Cl)c1ccccc1 (stereo unspecified) | Condition not met |
| O=C(Nc1ccccc1)c1ccccc1C(O)(c1ccccc1)c1ccc(Cl)cc1 (stereo unspecified) | Condition met |
| S=C1NNC2(C(=S)N1)c1ccccc1-c1ccccc12 | Condition met |
| Cc1c(C(=O)O)sc2ccc([N+](=O)[O-])cc12 | Condition not met |
| CC(C)CC(NC(=O)OC(C)(C)C)C(=O)NC(CCC(=O)OC1CCCCC1)C(N)=O (stereo not drawn) (Boc-Leu-Glu(OcHex)-NH2; configuration not given here) | Condition not met |
| C=C(Br)CN1CCC2(c3ccccc3)C(=O)C([Se]c3ccccc3)CCC12 (stereo unspecified) | Condition not met |
| CN(C)/N=C1/CCC(C(F)(F)F)(C(F)(F)F)O1 | Condition met |

# input In plain terms: is recorded growth inhibition at least 20% for `NC(=O)NNC(=O)Cc1ccccc1` ?
# output Condition not met

# input In plain terms: is recorded growth inhibition at least 20% for `CCC(CO)(CO)CBr` ?
# output Condition not met
